- target_or_system: recombinant homotrimeric HA, A/Wisconsin/67/05 H3N2 (Influenza A virus A/Wisconsin/67/05 (H3N2))
- assay_explanation: trimeric HA microarray, transfection set 5
- condition_context: remark: other sources report otherwise
Kindly state Trimeric HA Binding RLU for each of the entries shown.
# number only, unit RLU dropped from output

INPUT: State the recorded Trimeric HA Binding RLU for this entry: TCN-557 (5081_A04) (antibody, V domains shown) VH: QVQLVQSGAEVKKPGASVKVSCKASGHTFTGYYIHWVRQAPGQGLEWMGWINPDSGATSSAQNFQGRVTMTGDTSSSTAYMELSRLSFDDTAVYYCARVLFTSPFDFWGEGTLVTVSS VL: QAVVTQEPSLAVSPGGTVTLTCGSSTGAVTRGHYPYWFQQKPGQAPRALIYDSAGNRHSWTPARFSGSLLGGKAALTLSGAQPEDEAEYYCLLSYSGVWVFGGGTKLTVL
OUTPUT: 46100

INPUT: Endpoint output: Trimeric HA Binding RLU of TCN-540 (5060_F05) (antibody, V domains shown) VH: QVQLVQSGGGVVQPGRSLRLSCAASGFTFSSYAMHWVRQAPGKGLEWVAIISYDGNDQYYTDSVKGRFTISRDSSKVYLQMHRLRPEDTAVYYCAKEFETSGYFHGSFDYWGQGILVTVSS VL: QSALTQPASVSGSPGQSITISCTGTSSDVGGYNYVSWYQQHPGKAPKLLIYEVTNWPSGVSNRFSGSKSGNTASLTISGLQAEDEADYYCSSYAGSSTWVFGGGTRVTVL . Value?
OUTPUT: 53000
